experimental target: PSMA antigen (Homo sapiens, UniProt Q04609)
Construct: PSMA antigen expressed on LNCaP cell membranes; endogenous in cells
Sequence (Q04609 whole entry): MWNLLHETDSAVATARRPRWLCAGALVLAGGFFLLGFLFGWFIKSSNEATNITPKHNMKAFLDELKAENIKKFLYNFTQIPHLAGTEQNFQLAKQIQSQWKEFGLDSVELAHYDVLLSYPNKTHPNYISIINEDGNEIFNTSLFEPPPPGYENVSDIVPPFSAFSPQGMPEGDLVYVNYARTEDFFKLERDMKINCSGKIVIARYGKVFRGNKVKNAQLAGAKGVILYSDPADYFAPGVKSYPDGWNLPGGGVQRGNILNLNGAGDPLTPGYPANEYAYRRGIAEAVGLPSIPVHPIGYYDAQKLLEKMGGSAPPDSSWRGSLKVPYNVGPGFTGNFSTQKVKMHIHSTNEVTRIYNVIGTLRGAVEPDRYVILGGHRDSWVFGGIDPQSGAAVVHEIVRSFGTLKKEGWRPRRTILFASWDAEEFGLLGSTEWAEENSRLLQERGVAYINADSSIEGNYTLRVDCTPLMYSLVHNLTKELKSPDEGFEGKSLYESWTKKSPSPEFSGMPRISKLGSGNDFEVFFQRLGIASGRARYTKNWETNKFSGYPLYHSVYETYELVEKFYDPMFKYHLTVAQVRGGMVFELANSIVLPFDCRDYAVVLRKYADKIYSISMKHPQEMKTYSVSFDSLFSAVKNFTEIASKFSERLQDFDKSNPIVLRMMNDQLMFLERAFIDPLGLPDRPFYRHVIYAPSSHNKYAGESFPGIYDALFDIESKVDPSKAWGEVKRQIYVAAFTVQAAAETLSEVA
assay procedure: Saturation radioligand binding assay on LNCaP (PSMA positive) and PC3 (PSMA negative) cell membranes
particulars: LNCaP cell membranes, 2 h, 37 °C
pKd: −log10 of the molar value.

{"compound": "O=C([O-])CN1CCN(CC(=O)[O-])CCN(CC(=O)NCC2CCC(C(=O)NC(Cc3c[nH]c4ccccc34)C(=O)NCCCCC(NC(=O)NC(CCC(=O)O)C(=O)O)C(=O)O)CC2)CCN(CC(=O)[O-])CC1.[90Y+3] (centres unmarked) [[^90Y]Y-PSMA-D4]", "pKd": 8.35}
{"compound": "O=C([O-])CN1CCN(CC(=O)[O-])CCN(CC(=O)NCC2CCC(C(=O)NC(Cc3c[nH]c4ccccc34)C(=O)NCCCCC(NC(=O)NC(CCC(=O)O)C(=O)O)C(=O)O)CC2)CCN(CC(=O)[O-])CC1.[47Sc+3] (centres unmarked) [[^47Sc]Sc-PSMA-D4]", "pKd": 8.47}
{"compound": "O=C([O-])CN(CCN(CC(=O)[O-])Cc1cc(CCC(=O)NCCCCCC(=O)NCCCC[C@H](NC(=O)N[C@@H](CCC(=O)O)C(=O)O)C(=O)O)ccc1[O-])Cc1cc(CCC(=O)O)ccc1[O-].[68Ga+3].[OH3+] [[^68Ga]Ga-PSMA-11]", "pKd": 7.94}
{"compound": "O=C([O-])CN1CCN(CC(=O)[O-])CCN(CC(=O)NCC2CCC(C(=O)NC(Cc3c[nH]c4ccccc34)C(=O)NCCCCC(NC(=O)NC(CCC(=O)O)C(=O)O)C(=O)O)CC2)CCN(CC(=O)[O-])CC1.[177Lu+3] (centres unmarked) [[^177Lu]Lu-PSMA-D4]", "pKd": 8.62}
{"compound": "O=C([O-])CC[C@H](NC(=O)N[C@@H](CCCCNC(=O)CCCCCCC(=O)NCCCC[C@@H](NC(=O)[C@@H](Cc1ccccc1)NC(=O)[C@@H](Cc1ccc(O)c(I)c1)NC(=O)CC[C@H](C(=O)[O-])N1CCN(CC(=O)[O-])CCN(CC(=O)[O-])CCN(CC(=O)[O-])CC1)C(=O)[O-])C(=O)[O-])C(=O)[O-].[177Lu+3].[H+].[H+].[H+].[H+].[H+] [[^177Lu]Lu-PSMA-I&T]", "pKd": 8.29}

---

Items are presented alongside their recorded Specific Binding.
experimental target: PSMA antigen (Homo sapiens, UniProt Q04609)
Construct: PSMA antigen expressed on LNCaP cell membranes; endogenous in cells; host or cells: LNCaP cell membranes (PC3 membranes as PSMA-negative control)
assay procedure: Saturation radioligand binding assay on LNCaP (PSMA positive) and PC3 (PSMA negative) cell membranes
particulars: total binding on LNCaP minus non-specific binding on PC3 membranes
parameter measured: Specific Binding (%)

{"compound": "O=C([O-])CN(CCN(CC(=O)[O-])Cc1cc(CCC(=O)NCCCCCC(=O)NCCCC[C@H](NC(=O)N[C@@H](CCC(=O)O)C(=O)O)C(=O)O)ccc1[O-])Cc1cc(CCC(=O)O)ccc1[O-].[68Ga+3].[OH3+] [[^68Ga]Ga-PSMA-11]", "experimental target": "PSMA antigen (Homo sapiens, UniProt Q04609)", "parameter measured": "Specific Binding", "endpoint value": 96.8}
{"compound": "O=C([O-])CN1CCN(CC(=O)[O-])CCN(CC(=O)NCC2CCC(C(=O)NC(Cc3c[nH]c4ccccc34)C(=O)NCCCCC(NC(=O)NC(CCC(=O)O)C(=O)O)C(=O)O)CC2)CCN(CC(=O)[O-])CC1.[47Sc+3] (centres unmarked) [[^47Sc]Sc-PSMA-D4]", "experimental target": "PSMA antigen (Homo sapiens, UniProt Q04609)", "parameter measured": "Specific Binding", "endpoint value": 98.8}
{"compound": "O=C([O-])CC[C@H](NC(=O)N[C@@H](CCCCNC(=O)CCCCCCC(=O)NCCCC[C@@H](NC(=O)[C@@H](Cc1ccccc1)NC(=O)[C@@H](Cc1ccc(O)c(I)c1)NC(=O)CC[C@H](C(=O)[O-])N1CCN(CC(=O)[O-])CCN(CC(=O)[O-])CCN(CC(=O)[O-])CC1)C(=O)[O-])C(=O)[O-])C(=O)[O-].[177Lu+3].[H+].[H+].[H+].[H+].[H+] [[^177Lu]Lu-PSMA-I&T]", "experimental target": "PSMA antigen (Homo sapiens, UniProt Q04609)", "parameter measured": "Specific Binding", "endpoint value": 97.1}
{"compound": "O=C([O-])CN1CCN(CC(=O)[O-])CCN(CC(=O)NCC2CCC(C(=O)NC(Cc3c[nH]c4ccccc34)C(=O)NCCCCC(NC(=O)NC(CCC(=O)O)C(=O)O)C(=O)O)CC2)CCN(CC(=O)[O-])CC1.[177Lu+3] (centres unmarked) [[^177Lu]Lu-PSMA-D4]", "experimental target": "PSMA antigen (Homo sapiens, UniProt Q04609)", "parameter measured": "Specific Binding", "endpoint value": 99.1}
{"compound": "O=C([O-])CN1CCN(CC(=O)[O-])CCN(CC(=O)NCC2CCC(C(=O)NC(Cc3c[nH]c4ccccc34)C(=O)NCCCCC(NC(=O)NC(CCC(=O)O)C(=O)O)C(=O)O)CC2)CCN(CC(=O)[O-])CC1.[90Y+3] (centres unmarked) [[^90Y]Y-PSMA-D4]", "experimental target": "PSMA antigen (Homo sapiens, UniProt Q04609)", "parameter measured": "Specific Binding", "endpoint value": 99.9}
